Values compiled from the supplement of paper PMC8728848.

Target: GlcNAc(b1-3)Gal(b1-4)GlcNAc
Assay: glycan array binding signal (z-score within array); higher = stronger binding
Details: glycan notation: IUPAC condensed, linker removed
Only a selection was taken, and the strongest signals are over-represented in it overall.
Attribute measured: glycan array binding signal (z-score)
Numbers only.

SJA (Sophora japonica) (protein) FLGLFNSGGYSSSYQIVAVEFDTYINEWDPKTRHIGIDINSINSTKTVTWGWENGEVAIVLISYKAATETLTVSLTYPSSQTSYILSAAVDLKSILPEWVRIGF	-0.101
DC-ASGPR Long (Homo sapiens) (protein) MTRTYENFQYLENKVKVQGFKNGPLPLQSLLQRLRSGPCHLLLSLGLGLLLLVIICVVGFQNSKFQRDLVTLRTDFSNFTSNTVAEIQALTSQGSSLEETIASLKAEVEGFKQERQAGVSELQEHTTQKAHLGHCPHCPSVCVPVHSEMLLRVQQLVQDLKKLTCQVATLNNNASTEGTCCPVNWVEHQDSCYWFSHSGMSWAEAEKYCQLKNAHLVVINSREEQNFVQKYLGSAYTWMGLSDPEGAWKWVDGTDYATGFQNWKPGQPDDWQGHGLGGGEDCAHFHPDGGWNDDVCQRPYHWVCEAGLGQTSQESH	-0.433
SIGNR8 (Mus musculus) (protein) MAGEPEFHQSKNHEEEVTSGEQGFAEHDPEGLICSSKSLQGHLTQVPWLLLLLISLGLFLLMLATLVQVSRIRAYSQGQTQDQQGSSSLDKVAVPREQTHSGLEQIQQIQQQLTQFNASLAGLCRPCPWDWELFQGSCYLFSRTLGSWETSASSCEDLGAHLVIVNSVSEQRFMKYWNVRKNQRSWIGLSDHIHEGSWQWVDGSALKFSFWKEGEPNNDGDEDCVELFMDDWNDNKCTEQNFWVCEQPSAPCPHH	-0.398

Hello, I would appreciate it if you could give glycan array binding signal (z-score) for each entry below.
1. GSL-I-B4 (Griffonia simplicifolia) (protein) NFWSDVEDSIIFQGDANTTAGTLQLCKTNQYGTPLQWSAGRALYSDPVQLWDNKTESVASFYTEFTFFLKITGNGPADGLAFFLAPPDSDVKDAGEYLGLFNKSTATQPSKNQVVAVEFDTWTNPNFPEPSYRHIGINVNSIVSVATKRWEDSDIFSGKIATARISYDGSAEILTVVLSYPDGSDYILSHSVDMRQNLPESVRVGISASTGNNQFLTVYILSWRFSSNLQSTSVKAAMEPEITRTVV
2. CD83 (Homo sapiens) (protein) MSRGLQLLLLSCAYSLAPATPEVKVACSEDVDLPCTAPWDPQVPYTVSWVKLLEGGEERMETPQEDHLRGQHYHQKGQNGSFDAPNERPYSLKIRNTTSCNSGTYRCTLQDPDGQRNLSGKVILRVTGCPAQRKEETFKKYRAETSEQKLISEEDLSRGSDDDDKAEPRGP
3. OGAN (protein) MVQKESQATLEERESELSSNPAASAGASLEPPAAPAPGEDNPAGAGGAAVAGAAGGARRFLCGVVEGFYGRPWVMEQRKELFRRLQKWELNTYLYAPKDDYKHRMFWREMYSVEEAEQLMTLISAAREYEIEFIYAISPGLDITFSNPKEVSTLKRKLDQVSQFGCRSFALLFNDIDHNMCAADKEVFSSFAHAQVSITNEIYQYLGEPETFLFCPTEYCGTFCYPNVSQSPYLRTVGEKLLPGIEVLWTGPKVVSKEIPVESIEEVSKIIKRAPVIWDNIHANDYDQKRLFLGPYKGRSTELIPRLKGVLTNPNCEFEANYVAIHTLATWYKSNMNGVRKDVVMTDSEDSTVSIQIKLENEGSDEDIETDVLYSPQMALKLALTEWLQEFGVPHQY
4. RVL (Remusatia vivipara), B5LYJ9 (protein) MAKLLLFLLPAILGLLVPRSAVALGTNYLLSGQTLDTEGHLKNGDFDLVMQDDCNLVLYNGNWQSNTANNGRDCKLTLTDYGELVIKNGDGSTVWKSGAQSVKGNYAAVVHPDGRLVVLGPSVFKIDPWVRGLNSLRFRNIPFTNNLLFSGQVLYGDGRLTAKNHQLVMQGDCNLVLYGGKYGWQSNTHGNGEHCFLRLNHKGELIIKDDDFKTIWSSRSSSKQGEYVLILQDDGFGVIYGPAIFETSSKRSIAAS

Reply:
1: -0.186; 2: -0.162; 3: -0.063; 4: -0.145

Hello, I would appreciate it if you could give glycan array binding signal (z-score) for each entry below.
1. CFEM-PPm (Pichia pastoris), F2QPV1 (protein) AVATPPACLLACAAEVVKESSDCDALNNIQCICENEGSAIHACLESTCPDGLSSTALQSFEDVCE
2. Gal 8 (Mus musculus), Q9JL15 (protein) MGGSHHHHHHGMASMLSLNNLQNIIYNPIIPYVGTITEQLKPGSLIVIRGHVPKDSERFQVDFQLGNSLKPRADVAFHFNPRFKRSSCIVCNTLTQEKWGWEEITYDMPFRKEKSFEIVFMVLKNKFQVAVNGRHVLLYAHRISPEQIDTVGIYGKVNIHSIGFRFSSASALPHTLGDLQSMETSALGLTQINRENIQKPGKLQLSLPFEARLNASMGPGRTVVIKGEVNTNARSFNVDLVAGKTRDIALHLNPRLNVKAFVRNSFLQDAWGEEERNITCFPFSSGMYFEMIIYCDVREFKVAINGVHSLEYKHRFKDLSSIDTLSVDGDIRLLDVRSW
3. MUB70 (Lactobacillus reuteri) (protein) CVHVQYIDGETDQMLRQDDLDGYTDETIPYSTAEGIKKFEGDGYELFKDNFPAGEKFDNDDTNDQFYTVIF

Reply:
1. 0.308
2. -0.163
3. -0.453
